Every entry's value here was drawn from BigSolDB 2.1.

conditions: in methanol, 308.15 K
Attribute measured: solubility (mole fraction)

Structure string: O=[N+]([O-])c1cccc2cccc([N+](=O)[O-])c12
Measured result: 0.00106

====

conditions: in n-butanol, 275.65 K

Structure string: O=[N+]([O-])c1cccc2cccc([N+](=O)[O-])c12
solubility (mole fraction): 0.000178

====

conditions: in isopropanol, 303.15 K

Structure string: O=[N+]([O-])c1cccc2cccc([N+](=O)[O-])c12
solubility (mole fraction): 0.000482

====

conditions: in isopropanol, 300.65 K
Attribute measured: solubility (mole fraction)

Structure string: O=[N+]([O-])c1cccc2cccc([N+](=O)[O-])c12
Attribute measured: solubility (mole fraction)
Measured result: 0.00043
